Below, each of the molecules is paired with its reported log P value.

See these solved cases before continuing.
{"molecule": "CCCC(=O)OCn1cc2c(=O)n(COC(=O)CCC)cnc2n1", "measurement": 1.60}
{"molecule": "CC(=O)n1ncc2c(O)ncnc21", "measurement": -0.35}
{"molecule": "CCN(CC)C(=O)CCC(=O)OCn1ncc2c(O)ncnc21", "measurement": -0.22}
{"molecule": "CC(=O)OCn1ncc2c(O)ncnc21", "measurement": -0.35}
{"molecule": "CC(C)(C)C(=O)OCn1cc2c(=O)[nH]cnc2n1", "measurement": 0.79}
{"molecule": "CCC(=O)n1ncc2c(O)ncnc21", "measurement": 0.30}

Form field log P, entry CC(C)(C)C(=O)OCn1cc2c(=O)n(COC(=O)C(C)(C)C)cnc2n1 : 2.34

Form field log P, entry O=C(OCn1ncc2c(=O)[nH]cnc21)c1ccccc1 : 1.50

Form field log P, entry CC(C)(C)C(=O)OCn1ncc2c(O)ncnc21 : 1.07

Form field log P, entry O=C(OCn1ncc2c(=O)[nH]cnc21)c1cccnc1 : 0.27

Form field log P, entry CCCC(=O)OCn1cnc2c(cnn2COC(=O)CCC)c1=O : 1.82

Form field log P, entry CC(C)(C)C(=O)OCn1cnc2c(cnn2COC(=O)C(C)(C)C)c1=O : 2.50

Form field log P, entry CCCC(=O)n1ncc2c(O)ncnc21 : 0.85

Form field log P, entry CCCC(=O)OCn1ncc2c(=O)[nH]cnc21 : 0.60

---

assay: Comparative absorption study following peroral administration, urinary excretion; format: in vivo; details: urine, po, human, dose corresponding to 100 mg allopurinol, read-out: total urinary excretion of allopurinol and oxipurinol
measured.quantity: dose excreted (%)
Just the number please, in %, no unit attached.

Form field dose excreted, entry Oc1ncnc2[nH]ncc12 : 67

---

test: In-vitro cleavage of allopurinol derivatives to allopurinol in 80% human plasma (pH 7.4) at 37° C; assay type: in vitro ADME; conditions: 80% plasma, pH 7.4, 37° C, read-out: Half-time (t0.5) of the conversion to allopurinol, 80% human plasma (converted)
Structures can show the parent of a compound that is named as a salt.
measured.quantity: half-life (min)
Just the number please, in min, no unit attached.

Form field half-life, entry CC(C)C[C@H](N)C(=O)OCn1ncc2c(=O)[nH]cnc21 [1-(L-Leucyloxymethyl)allopurinol, (hydrobromide)] : 6

Form field half-life, entry CCN(CC)C(C)C(=O)OCn1ncc2c(=O)[nH]cnc21 (racemic) [(hydrochloride)] : 17

Form field half-life, entry CCN(CC)C(=O)CCC(=O)OCn1ncc2c(O)ncnc21 : 504

Form field half-life, entry CCCC(=O)OCn1ncc2c(=O)[nH]cnc21 : 9

Form field half-life, entry CCCC(=O)n1ncc2c(O)ncnc21 : 2.5

---

assay: physchem; settings: water
Below, each of the compounds is paired with its reported solubility value.
Just the number please, in µg/mL, no unit attached.

{"substance.smiles": "CC(C)(C)C(=O)OCn1ncc2c(O)ncnc21", "units.label": "µg/mL", "solubility": 520}
{"substance.smiles": "CCCC(=O)n1ncc2c(O)ncnc21", "units.label": "µg/mL", "solubility": 110}
{"substance.smiles": "CC(=O)OCn1ncc2c(O)ncnc21", "units.label": "µg/mL", "solubility": 580}
{"substance.smiles": "CC(=O)n1ncc2c(O)ncnc21", "units.label": "µg/mL", "solubility": 750}

We now examine a further compound.
Form field solubility, entry CC(C)(C)C(=O)OCn1cnc2c(cnn2COC(=O)C(C)(C)C)c1=O : 20
